- test-system: 5-HT2C receptor (5-HT2CR) (Homo sapiens)
- Construct: full-length receptor in HEK293T with Galphaq-RLuc8/Gbeta1/Ggamma1-GFP2
- Sequence (P28335 33-458): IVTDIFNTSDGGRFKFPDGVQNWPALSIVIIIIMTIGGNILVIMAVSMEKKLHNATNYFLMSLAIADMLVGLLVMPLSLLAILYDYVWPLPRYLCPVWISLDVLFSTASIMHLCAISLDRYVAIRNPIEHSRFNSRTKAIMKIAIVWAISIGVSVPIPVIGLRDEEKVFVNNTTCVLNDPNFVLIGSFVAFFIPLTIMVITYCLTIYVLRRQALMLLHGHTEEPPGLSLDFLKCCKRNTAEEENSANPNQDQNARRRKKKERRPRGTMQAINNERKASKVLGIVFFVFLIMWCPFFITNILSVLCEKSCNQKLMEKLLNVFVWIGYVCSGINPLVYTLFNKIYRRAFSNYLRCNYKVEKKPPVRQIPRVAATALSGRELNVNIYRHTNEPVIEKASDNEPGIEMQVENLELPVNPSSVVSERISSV
- experimental-details: Gq dissociation BRET2 in HEK293T
- stated-conditions: agonist; 37 °C, 60 min

>  <compound>
COc1cc([N+](=O)[O-])c(OC)cc1CCNCc1ccccc1 [compound 2, 25N-NB]

>  <unit-info>
nM

>  <EC50>
8.3

$$$$
